Assignment: determine reported IC50 for the given molecules.
target: Avi-KRAS G12C (1-169) GppNHp/RAF1 RBD-3×FLAG (52-151) (Homo sapiens, UniProt P01116, G12C); construct: Avi-KRAS G12C (1-169) GppNHp; Avi (N); test: Raf1 RBD-KRAS G12C-GppNHp disruption assay (protein:protein interaction HTRF)
Sequence (P01116 1-169 isoform P01116-2 G12C limits assumed): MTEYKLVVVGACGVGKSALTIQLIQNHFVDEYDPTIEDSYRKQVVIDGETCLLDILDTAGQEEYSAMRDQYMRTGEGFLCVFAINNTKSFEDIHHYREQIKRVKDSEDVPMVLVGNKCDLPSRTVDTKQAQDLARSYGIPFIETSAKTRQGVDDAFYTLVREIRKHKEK

Request: Under Avi-KRAS G12C (1-169) GppNHp/RAF1 RBD-3×FLAG (52-151) (Homo sapiens, UniProt P01116, G12C): report IC50 of C=CC(=O)N1CC[C@@H](N(C)c2nc(OC[C@@H]3C[C@@H](F)CN3C)nc3c(F)c(-c4ccc(F)c5sc(N)c(C#N)c45)c(C(F)(F)F)cc23)[C@H]1C .
Response: < 500 nM

Request: Under Avi-KRAS G12C (1-169) GppNHp/RAF1 RBD-3×FLAG (52-151) (Homo sapiens, UniProt P01116, G12C): report IC50 of C=CC(=O)N1CC[C@@H](N(CC)c2nc(OC[C@@H]3CCCN3C)nc3c(F)c(-c4ccc(F)c5sc(N)c(C#N)c45)c(Cl)cc23)[C@H]1C .
Response: < 500 nM

Request: Under Avi-KRAS G12C (1-169) GppNHp/RAF1 RBD-3×FLAG (52-151) (Homo sapiens, UniProt P01116, G12C): report IC50 of C=CC(=O)N1CC[C@@H](N(C)c2nc(OC[C@@]34CCCN3C[C@H](F)C4)nc3cc(-c4ccc(F)c5sc(N)c(C#N)c45)c(C#N)cc23)[C@@H]1C .
Response: < 500 nM

Request: Under Avi-KRAS G12C (1-169) GppNHp/RAF1 RBD-3×FLAG (52-151) (Homo sapiens, UniProt P01116, G12C): report IC50 of C=CC(=O)N1CC[C@@H](N(C)c2nc(OC[C@]34CCCN3C[C@H](F)C4)nc3c(F)c(-c4ccc(F)c5sc(N)c(C#N)c45)c(Cl)cc23)[C@H]1C .
Response: < 500 nM

Request: Under Avi-KRAS G12C (1-169) GppNHp/RAF1 RBD-3×FLAG (52-151) (Homo sapiens, UniProt P01116, G12C): report IC50 of C=CC(=O)N1CC[C@@H](N(C)c2nc(OC[C@@H]3CCCN3C)nc3c(F)c(-c4ccc(F)c5sc(N)c(C#N)c45)c(C(F)(F)F)cc23)[C@H]1C (atropisomer, axis not shown) [Compound 131] .
Response: < 500 nM

Request: Under Avi-KRAS G12C (1-169) GppNHp/RAF1 RBD-3×FLAG (52-151) (Homo sapiens, UniProt P01116, G12C): report IC50 of C=CC(=O)N1C[C@H](N(C)c2nc(OC[C@@]34CCCN3C[C@H](F)C4)nc3c(F)c(-c4ccc(F)c5sc(N)c(C#N)c45)c(C(F)(F)F)cc23)C[C@H]1C (atropisomer, axis not shown) [Compound 177] .
Response: 500 to 5000 nM

Request: Under Avi-KRAS G12C (1-169) GppNHp/RAF1 RBD-3×FLAG (52-151) (Homo sapiens, UniProt P01116, G12C): report IC50 of [2H]C1([2H])CN2C[C@H](F)C[C@]2(COc2nc(N3C[C@@H](C)N(C(=O)C=C)C[C@@H]3C)c3cc(C(F)(F)F)c(-c4ccc(F)c5sc(N)c(C#N)c45)c(F)c3n2)C1 .
Response: < 500 nM

Request: Under Avi-KRAS G12C (1-169) GppNHp/RAF1 RBD-3×FLAG (52-151) (Homo sapiens, UniProt P01116, G12C): report IC50 of [2H]C1([2H])CN2C[C@H](F)C[C@]2(COc2nc(N(C)[C@@H]3CCN(C(=O)C=C)[C@@H]3C)c3cc(C(F)(F)F)c(-c4ccc(F)c5sc(N)c(C#N)c45)c(F)c3n2)C1 .
Response: < 500 nM

Request: Under Avi-KRAS G12C (1-169) GppNHp/RAF1 RBD-3×FLAG (52-151) (Homo sapiens, UniProt P01116, G12C): report IC50 of C=CC(=O)N1CC[C@@H](N(CC)c2nc(OC[C@@H]3C[C@@H](F)CN3C)nc3c(F)c(-c4ccc(F)c5sc(N)c(C#N)c45)c(C(F)(F)F)cc23)[C@H]1C (atropisomer, axis not shown) [Compound 114] .
Response: 5000 to 20000 nM

Request: Under Avi-KRAS G12C (1-169) GppNHp/RAF1 RBD-3×FLAG (52-151) (Homo sapiens, UniProt P01116, G12C): report IC50 of C=CC(=O)N1CC[C@@H](N(C)c2nc(OC[C@@]34CCCN3C[C@H](F)C4)nc3c(F)c(-c4ccc(F)c5sc(N)c(C#N)c45)c(C(F)(F)F)cc23)[C@H]1CC .
Response: < 500 nM

Request: Under Avi-KRAS G12C (1-169) GppNHp/RAF1 RBD-3×FLAG (52-151) (Homo sapiens, UniProt P01116, G12C): report IC50 of C=CC(=O)N1CCC(N(CC)c2nc(OC[C@@]34CCCN3C[C@H](F)C4)nc3cc(-c4ccc(F)c5sc(N)c(C#N)c45)c(C#N)cc23)[C@H]1CC (stereo partly shown) .
Response: < 500 nM

Request: Under Avi-KRAS G12C (1-169) GppNHp/RAF1 RBD-3×FLAG (52-151) (Homo sapiens, UniProt P01116, G12C): report IC50 of C=CC(=O)N1CC[C@@H](N(C)c2nc(OC[C@@H]3CCCN3CC)nc3c(F)c(-c4ccc(F)c5sc(N)c(C#N)c45)c(C(F)(F)F)cc23)[C@@H]1C .
Response: < 500 nM

Request: Under Avi-KRAS G12C (1-169) GppNHp/RAF1 RBD-3×FLAG (52-151) (Homo sapiens, UniProt P01116, G12C): report IC50 of C=CC(=O)N1CC[C@@H](N(C)c2nc(OC[C@@H]3C[C@@H](F)CN3C)nc3c(F)c(-c4nc(N)cc(C)c4C(F)(F)F)c(C(F)(F)F)cc23)[C@H]1C .
Response: < 500 nM

Request: Under Avi-KRAS G12C (1-169) GppNHp/RAF1 RBD-3×FLAG (52-151) (Homo sapiens, UniProt P01116, G12C): report IC50 of C=CC(=O)N1CC[C@@H](N(C)c2nc(OC[C@@H]3C[C@@H](OC)CN3CC)nc3c(F)c(-c4ccc(F)c5sc(N)c(C#N)c45)c(C(F)(F)F)cc23)[C@H]1C .
Response: < 500 nM

Request: Under Avi-KRAS G12C (1-169) GppNHp/RAF1 RBD-3×FLAG (52-151) (Homo sapiens, UniProt P01116, G12C): report IC50 of C=CC(=O)N1CC[C@@H](N(CC)c2nc(OC[C@@H]3C[C@@H](OC)CN3C)nc3c(F)c(-c4ccc(F)c5sc(N)c(C#N)c45)c(C(F)(F)F)cc23)[C@H]1C (single isomer, unassigned) [Compound 116] .
Response: < 500 nM

Request: Under Avi-KRAS G12C (1-169) GppNHp/RAF1 RBD-3×FLAG (52-151) (Homo sapiens, UniProt P01116, G12C): report IC50 of C=CC(=O)N1CC[C@@H](N(C)c2nc(OC[C@@H]3CCCN3C)nc3c(F)c(-c4ccc(F)c5sc(N)c(C#N)c45)c(C(F)(F)F)cc23)[C@H]1C [Compound 67] .
Response: < 500 nM

Request: Under Avi-KRAS G12C (1-169) GppNHp/RAF1 RBD-3×FLAG (52-151) (Homo sapiens, UniProt P01116, G12C): report IC50 of C=CC(=O)N1CC[C@@H](N(C)c2nc(OC[C@@H]3C[C@@H](OC)CN3CC)nc3c(F)c(-c4ccc(F)c5sc(N)c(C#N)c45)c(Cl)cc23)[C@@H]1C .
Response: < 500 nM

Request: Under Avi-KRAS G12C (1-169) GppNHp/RAF1 RBD-3×FLAG (52-151) (Homo sapiens, UniProt P01116, G12C): report IC50 of C=CC(=O)N1C[C@H](N(C)c2nc(OC[C@@H]3CCCN3C)nc3c(F)c(-c4ccc(F)c5sc(N)c(C#N)c45)c(C(F)(F)F)cc23)C[C@H]1C .
Response: < 500 nM

Request: Under Avi-KRAS G12C (1-169) GppNHp/RAF1 RBD-3×FLAG (52-151) (Homo sapiens, UniProt P01116, G12C): report IC50 of C=CC(=O)N1CC[C@@H](N(CC)c2nc(OC[C@@]34CCCN3C[C@H](F)C4)nc3cc(-c4ccc(F)c5sc(N)c(C#N)c45)c(F)cc23)[C@@H]1CC .
Response: 500 to 5000 nM
